# System: DMS-114
# TEST NAME: NCI tumour cell line growth inhibition, 48 h
Calls of active or inactive are those of the source. Cut-off read from the data, not from the text of the source: active = GI50 up to about 1.1 µM and inactive = higher.
Outcome codes: Yes for active, No for inactive

{"columns": ["COMPOUND", "CLASS LABEL"],
 "data": [
  ["O=C1COc2cc3c(cc2N1)SCCC(=O)N3", "No"],
  ["COC(=O)C(C#CCCCCC#CC(NC(=O)OCc1ccccc1)(C(=O)OC)C(F)(F)F)(NC(=O)OCc1ccccc1)C(F)(F)F (configuration not stated)", "No"],
  ["c1ccc2cc(-c3cc4ccccc4s3)ccc2c1", "No"],
  ["CC[C@]12C=CCN3CC[C@@]4(c5ccc(OC)cc5N(C)[C@H]4[C@@](O)(C(=O)OC)[C@@H]1OC(C)=O)[C@@H]32", "No"],
  ["O=C(CCN1CCCCC1CO)Nc1ccc2c(c1)C(=O)c1ccc(NC(=O)CCN3CCCCC3CO)cc1C2=O (configuration not stated)", "No"],
  ["O=[N+]([O-])c1ccc(/C=C/c2ccc(/C=C/c3ccc([N+](=O)[O-])cc3[N+](=O)[O-])cc2)c([N+](=O)[O-])c1", "No"],
  ["COc1cc2c(oc(=O)c3cc4cc([Si](C)(C)C)oc4c(OC)c32)c2cccc(O)c12", "No"],
  ["CCCCn1c2ccccc2c2ccc3c(c21)C(=O)C=CC3=O", "No"],
  ["O=C(O)OC12CCCCCC1C(=O)C1CCCCC12 (configuration not stated)", "No"],
  ["O=C(Cc1nc2ccccc2o1)C(=O)Nc1ccccc1C(F)(F)F", "No"],
  ["Cc1ccccc1SC(/C=C/NNC1=NN=C(c2ccccc2)C(c2ccccc2)N1)c1ccccc1 (configuration not stated)", "No"],
  ["CC#C[C@@]1(O)CCCCC1O (some centres not stated)", "No"],
  ["CC(C)[C@](O)(C(=O)OCC1CC[N+]2([O-])CC[C@@H](O)C12)[C@H](C)O (some centres not stated)", "No"],
  ["O=NN(CCCl)C(=O)Nc1ccc(Cl)c(Cl)c1", "No"],
  ["CCN(CC)CC(C)C(=O)/C=C/c1ccc(C)cc1 (configuration not stated)", "No"],
  ["COC(=O)C(C(=O)C(=O)Nc1ccc([N+](=O)[O-])cc1[N+](=O)[O-])c1nc2ccc(Cl)cc2nc1O (configuration not stated)", "No"],
  ["CC(=O)Oc1c2c(c(O)c3ccccc13)C(n1cnc3c(ncn3C3OC(CO)C4OC(C)(C)OC43)c1=N)CCC2 (configuration not stated)", "No"],
  ["S=c1sc2c(n1-c1ccccc1)N=CNC2S (configuration not stated)", "No"],
  ["CC(=O)CC(=O)CCCC(=O)Nc1ccc(Cl)cc1C", "No"],
  ["CCC/N=C/c1c(O)c(O)c(C(C)C)c2cc(C)c(-c3c(C)cc4c(C(C)C)c(O)c(O)c(/C=N/CCC)c4c3O)c(O)c12", "No"],
  ["Cc1ccc(C[P+]2(c3ccccc3)CCCCC2)cc1.[O-][Cl+3]([O-])([O-])[O-]", "No"],
  ["Nc1nc(SCc2ccccc2Cl)c2ncn(C3OC(CO)C(O)C3O)c2n1 (configuration not stated)", "No"],
  ["Nc1ncnc2c1nnn2C1OC(CO)C(O)C1O (configuration not stated)", "No"],
  ["COc1cc2c(cc1OC)C1C(=O)c3c(O)cc4c(c3OC1CO2)C=CC(C)(C)O4 (configuration not stated)", "Yes"],
  ["Cc1cccc(C(C)(C)C)c1NC(=O)CC1Sc2ccccc2NC1=O (configuration not stated)", "No"],
  ["O=C1C[C@@H]2[C@@H](CCC23CC3)N1", "No"],
  ["O=C(/C=C/c1ccccc1)CCN1CCOCC1", "No"],
  ["O=C1OC2CC=CC1C2 (configuration not stated)", "No"],
  ["COC(=O)C(=O)C(CC(=O)Nc1cccc(C(F)(F)F)c1)C(=O)OC (configuration not stated)", "No"],
  ["O=S(=O)(O)CS(=O)(=O)OCCCl", "No"],
  ["CCN(CC)CCCC(C)Nc1ccnc2cc(Cl)ccc12 (configuration not stated) [CHLOROQUINE PHOSPHATE]", "No"],
  ["CC(C#N)c1cn(S(=O)(=O)c2ccccc2)c2ccccc12 (configuration not stated)", "No"]
]}

====

# Tested on: SK-OV-3
# TEST NAME: NCI tumour cell line growth inhibition, 48 h
The source made the active and inactive calls. Rule as the data show it: active = GI50 up to about 1.1 µM and inactive = higher.
Classes used: active, inactive

{"columns": ["COMPOUND", "TARGET SYSTEM", "CLASS LABEL"],
 "data": [
  ["CCCCOCOc1ccccc1P1(=O)COc2ccccc2OC1", "SK-OV-3", "inactive"],
  ["CCCCCCCCCCCC(=O)Oc1c(Cl)cc(Cl)c(OC(=O)C(=O)Oc2c(Cl)cc(Cl)c(OC(=O)CCCCCCCCCCC)c2Cl)c1Cl", "SK-OV-3", "inactive"],
  ["OCC1c2ccccc2-n2nc(-c3ccccc3)c(O)c21 (stereo unspecified)", "SK-OV-3", "inactive"],
  ["CCc1nc(N)nc(N)c1-c1ccc(Cc2ccccc2)c([N+](=O)[O-])c1", "SK-OV-3", "inactive"],
  ["C=C(CC(NC(=O)c1ccc(C(CC)Cc2cnc3nc(N)nc(N)c3n2)cc1)C(=O)O)C(=O)O (stereo unspecified)", "SK-OV-3", "active"],
  ["CN1C(=O)N/C(=C\\c2ccc(S(=O)(=O)NN)cc2)C1=O", "SK-OV-3", "inactive"]
]}

====

# Test system: NCI-H226
# TEST NAME: NCI tumour cell line growth inhibition, 48 h
Active and inactive are the calls of the source. Rule as the data show it: active = GI50 up to about 1.1 µM and inactive = higher.
Labels: TRUE for active, FALSE for inactive

{"columns": ["MOLECULE", "CLASS LABEL"],
 "data": [
  ["CCCCCCCCCCC(=O)CC(=O)c1c(O)cccc1O", "FALSE"],
  ["COc1ccc(C(=O)O)c(Br)c1OCc1ccccc1", "FALSE"],
  ["[O-][n+]1onc2c3nn(-c4ccccc4)nc3ccc21", "FALSE"],
  ["CCCC(=O)Nc1cc(/C=C/C(=O)N2CC(CCl)c3c2cc(O)c2[nH]cc(C)c32)n(C)c1 (stereo unspecified)", "TRUE"],
  ["C=CCC1CC(n2cc(C)c(=O)[nH]c2=O)OC1CO[Si](C)(C)C(C)(C)C (stereo unspecified)", "FALSE"],
  ["CC(=O)NC(CS/N=N/c1[nH]cnc1C(N)=O)C(=O)O (stereo unspecified)", "FALSE"]
]}

====

Documented GI50 across a set of compounds
# System: RPMI-8226
# TEST NAME: NCI tumour cell line growth inhibition, 48 h
The source made the active and inactive calls. Rule as the data show it: active = GI50 up to about 1.1 µM and inactive = higher. *1 amine or outer side, *2 acyl side, *3 side chain or, on linkers, in order; H or OH if unused. Where a SMILES comes first, the peptide text is derived from it. Bridges are numbered along the chain shown (N, C = ends). [ ]: non-standard residue; d: D form. X36 = CC[C@H](C)[C@@H](N[*:1])[C@@H](O)CC(=O)O[C@H](C(=O)[C@H](C)C(=O)[*:2])C(C)C; NMeY = CN[C@@H](Cc1ccc(O)cc1)C(=O)O

{"columns": ["COMPOUND", "GI50"],
 "data": [
  ["Cn1c(=O)c2c(nc3n(Cc4ccccc4)c(=O)c(NCCCBr)cn23)n(C)c1=O", "> 100 µM (inactive)"],
  ["CS(=O)(=O)Nc1ccc(N2Cc3c[nH]c4ccc5nccc2c5c34)cc1", "20.3 µM (inactive)"],
  ["N#Cc1c(NN)nc(NN)c(C#N)c1-c1ccccc1", "> 100 µM (inactive)"],
  ["CCOP(=O)(OCC)C(=C1C=C(C(C)(C)C)C(=O)C(C(C)(C)C)=C1)P(=O)(OCC)OCC", "5.08 µM (inactive)"],
  ["CSCCC(NOC(=O)Cc1ccccc1)P(=O)(O)c1ccccc1 (stereo not drawn)", "> 100 µM (inactive)"],
  ["S=c1sc2c(n1-c1ccccc1)N=CNC2S (stereo not drawn)", "62.2 µM (inactive)"],
  ["COC(=O)[C@@]12C(=O)CCC(=O)C1C1C(=CC2C)O[C@@H]2OC3(CCCCC3)O[C@H]12 (stereo partly drawn)", "19 µM (inactive)"],
  ["CC[C@H](C)[C@H]1NC(=O)[C@@H](N)[C@@H](C)OC(=O)[C@H](Cc2ccc(OC)cc2)N(C)C(=O)[C@@H]2CCCN2C(=O)[C@H](CC(C)C)NC(=O)[C@@H](C)C(=O)[C@H](C(C)C)OC(=O)C[C@@H]1O (H-T[X36]LP[NMeY](Me); ester 1-C)", "12.7 µM (inactive)"]
]}

====

# Tested on: OVCAR-8
# TEST NAME: NCI tumour cell line growth inhibition, 48 h
The source made the active and inactive calls. No stated cut-off is given here; in the data, active = GI50 up to about 1.1 µM and inactive = higher.
Overview of recorded GI50 for various compounds
RECORDED ENDPOINT: GI50

{"columns": ["COMPOUND", "TEST VALUE"],
 "data": [
  ["c1cc(C[S+]2CCCC2)oc1C[S+]1CCCC1", "> 100 µM (inactive)"],
  ["NC(=O)NOCC1NC(=O)NC1=O (configuration not stated)", "> 100 µM (inactive)"],
  ["CN(C)C(=O)/N=C1\\SC(=N\\c2ccccc2)/C(=N/c2ccccc2)N1c1ccc([N+](=O)[O-])cc1", "> 100 µM (inactive)"],
  ["NCC(=O)C(O)C(O)C(O)CO (configuration not stated)", "> 100 µM (inactive)"],
  ["[O-][n+]1onc2c1/C(=N/O)CCC2", "> 100 µM (inactive)"],
  ["Cc1cccc(Cn2c3c(c4cc(O)ccc42)C(=O)c2ccccc2C3=O)c1", "5.57 µM (inactive)"],
  ["Nc1nc(-c2ccccc2)c(CC(=O)O)s1", "> 100 µM (inactive)"],
  ["OCC1c2ccccc2-n2nc(-c3ccccc3)c(O)c21 (configuration not stated)", "18.5 µM (inactive)"],
  ["O=C1c2ccccc2C(=O)N1/N=C\\c1ccc(Br)cc1", "> 10 µM (inactive)"],
  ["O=C1OC(c2ccccc2)=N/C1=C\\c1cccc2ccccc12", "> 100 µM (inactive)"],
  ["Nc1ncnc2c1nnn2C1OC(CO)C(O)C1O (configuration not stated)", "2.87 µM (inactive)"],
  ["CCNCCNC(=O)c1ccc(Br)cc1", "> 100 µM (inactive)"]
]}

Data credit: ChEMBL document CHEMBL1201862
